# TEST_NAME: in vitro
# PROTOCOL_CONDITIONS: monkey, Vero 76 cells
QUANTITY_KIND: selectivity ratio
# print the numeric value only

# example entries with known answers
1) OC[C@@]12C[C@@H]1[C@@H](n1ccc3c(NC(C4CCC4)C4CCC4)nc(Cl)nc31)[C@H](O)[C@@H]2O    3.6
2) CC(C)[C@@H](Nc1nc(Cl)nc2c1ncn2[C@H]1[C@H](O)[C@H](O)[C@]2(CF)C[C@H]12)C1CC1    11

Return the recorded selectivity ratio value; entry: `CC(C)[C@@H](Nc1nc(Cl)nc2c1ncn2[C@H]1[C@H](O)[C@H](O)[C@]2(CN=[N+]=[N-])C[C@H]12)C1CC1`
6.7

* * *

# CC50 values compiled below
# Tested on: Vero 76
# TEST_NAME: Cytotoxicity against monkey Vero 76 cells by neutral red uptake assay
# Format: cell-based
# PROTOCOL_CONDITIONS: chlorocebus sabaeus, vero 76
Report only the number, with the unit µM understood.

1. CC(C)[C@@H](Nc1nc(Cl)nc2c1ncn2[C@H]1[C@H](O)[C@H](O)[C@]2(CN=[N+]=[N-])C[C@H]12)C1CC1    32
2. CC(C)[C@@H](Nc1nc(Cl)nc2c1ncn2[C@H]1[C@H](O)[C@H](O)[C@]2(CCl)C[C@H]12)C1CC1    27
3. COC(=O)c1cnn(-c2nc(NC(C3CC3)C3CC3)c3ncn([C@H]4[C@H](O)[C@H](O)[C@@H]5C[C@@H]54)c3n2)c1    50
4. O[C@@H]1[C@H](O)[C@@H]2C[C@@H]2[C@H]1n1cnc2c(NC(C3CC3)C3CC3)nc(I)nc21    50
5. CCOC(=O)[C@@]12C[C@@H]1[C@@H](n1cnc3c(NC(C4CC4)C4CC4)nc(Cl)nc31)[C@H](O)[C@@H]2O    1.5
6. OC[C@@]12C[C@@H]1[C@@H](n1cnc3c(N[C@@H](C4CCC4)C4CC4)nc(Cl)nc31)[C@H](O)[C@@H]2O    13
7. O[C@@H]1[C@H](O)[C@@H]2C[C@@H]2[C@H]1n1cnc2c(NCc3ccccc3F)nc(Cl)nc21    23
8. O[C@@H]1[C@H](O)[C@@H]2C[C@@H]2[C@H]1n1cnc2c(NCC(C3CC3)C3CC3)nc(Cl)nc21    10
9. O=C(O)c1cnn(-c2nc(NC(C3CC3)C3CC3)c3ncn([C@H]4[C@H](O)[C@H](O)[C@@H]5C[C@@H]54)c3n2)c1    50

Please look at the following compound next.
Give measured CC50 for `CSC[C@@]12C[C@@H]1[C@@H](n1cnc3c(N[C@H](C(C)C)C4CC4)nc(Cl)nc31)[C@H](O)[C@@H]2O` (Vero 76).
32

* * *

# Test system: Poliovirus 1
# TEST_NAME: Antiviral activity against Poliovirus 1 Mahoney infected in monkey Vero 76 cells assessed as reduction in virus-induced cytopathic effect by neutral red uptake assay
# Assay type: functional, organism-based
# PROTOCOL_CONDITIONS: Enterovirus C
QUANTITY_KIND: EC50 (µM)
Please give a number only; it is taken to be in µM.

Return EC50 (reported value) for this molecule: `CC(C)[C@@H](Nc1nc(Cl)nc2c1ncn2[C@H]1[C@H](O)[C@H](O)[C@]2(CO)C[C@H]12)C1CC1`
27

* * *

# Test system: Vero 76
# TEST_NAME: Cytotoxicity against monkey Vero 76 cells by microscopic analysis
# Type: cell-based
# PROTOCOL_CONDITIONS: chlorocebus sabaeus, vero 76
QUANTITY_KIND: CC50

Worked examples, 4 molecules total:
1) NNc1nc(NC(C2CC2)C2CC2)c2ncn([C@H]3[C@H](O)[C@H](O)[C@@H]4C[C@@H]43)c2n1    > 50 µM
2) CC(C)[C@@H](Nc1nc(Cl)nc2c1ncn2[C@H]1[C@H](O)[C@H](O)[C@@H]2C[C@@H]21)C1CC1    > 50 µM
3) CCOC(=O)c1ccc(OCCC2CCN(c3ccc(C)nn3)CC2)cc1    > 27 µM
4) CC(C)[C@@H](Nc1nc(Cl)nc2c1ncn2[C@H]1[C@H](O)[C@H](O)[C@]2(CCl)C[C@H]12)C1CC1    32 µM

For `NCCNC(=O)[C@@]12C[C@@H]1[C@@H](n1cnc3c(NC(C4CC4)C4CC4)nc(Cl)nc31)[C@H](O)[C@@H]2O` , write its CC50.
> 50 µM

Please give measured CC50 of the following entry: `CC(C)[C@@H](Nc1nc(I)nc2c1ncn2[C@H]1[C@H](O)[C@H](O)[C@]2(CO)C[C@H]12)C1CC1`
100 µM

Recall and state the measured CC50 for `OC[C@@]12C[C@@H]1[C@@H](n1cnc3c(NCc4ccccc4)nc(Cl)nc31)[C@H](O)[C@@H]2O` .
> 100 µM

Query CC50 for `CC(C)C(Nc1nc(Cl)nc2c1ncn2[C@H]1[C@H](O)[C@H](O)[C@]2(CO)C[C@H]12)C(C)C`
> 100 µM

Tell me measured CC50 for `CC(C)[C@@H](Nc1nc(Cl)nc2c1ncn2[C@H]1[C@H](O)[C@H](O)[C@]2(CO)C[C@H]12)C1CC1` please.
24 µM

Output measured CC50 for this item: `O=C(O)[C@@]12C[C@@H]1[C@@H](n1cnc3c(NC(C4CC4)C4CC4)nc(Cl)nc31)[C@H](O)[C@@H]2O`
> 50 µM

Retrieve CC50 measured for `CC(C)(O)[C@@H](Nc1nc(Cl)nc2c1ncn2[C@H]1[C@H](O)[C@H](O)[C@]2(CO)C[C@H]12)C1CC1` and print it.
> 100 µM

Please report the measured CC50 for `O[C@@H]1[C@H](O)[C@@H]2C[C@@H]2[C@H]1n1cnc2c(NC(C3CCC3)C3CCC3)nc(Cl)nc21`
16 µM

Tell us which CC50 value is on record for `CCOC(=O)[C@@]12C[C@@H]1[C@@H](n1cnc3c(NC(C4CC4)C4CC4)nc(Cl)nc31)[C@H](O)[C@@H]2O`
> 50 µM

* * *

# Test system: enterovirus D68
# TEST_NAME: Antiviral activity against Enterovirus D68 US/KY/14-18953 strain infected in RD cells assessed as reduction in virus-induced cytopathic effect by neutral red uptake assay
# Format: functional, organism-based
# PROTOCOL_CONDITIONS: Enterovirus D, US/KY/14-18953, RD
QUANTITY_KIND: EC50
The reply should read as a number followed by its unit.

The cases that follow already have their EC50 on record.
1. CC(C)[C@@H](Nc1nc(Cl)nc2c1ncn2[C@H]1[C@H](O)[C@H](O)[C@]2(CF)C[C@H]12)C1CC1    16 µM
2. CC(C)[C@@H](Nc1nc(Cl)nc2c1ncn2[C@H]1[C@H](O)[C@H](O)[C@]2(CO)C[C@H]12)C1CC1    32 µM
3. CC(C)S(=O)(=O)n1c(N)nc2ccc(/C(=N/O)c3ccccc3)cc21    0.032 µM

Report EC50 for `O[C@@H]1[C@H](O)[C@@H]2C[C@@H]2[C@H]1n1cnc2c(NC(C3CC3)C3CC3)nc(Cl)nc21`
9.3 µM

* * *

# TEST_NAME: in vitro
# PROTOCOL_CONDITIONS: monkey, Vero 76 cells
Consider the following compounds and their measured selectivity ratio readings.
// print number alone

The examples below pair each entry with its known result.
1. CSC[C@@]12C[C@@H]1[C@@H](n1cnc3c(N[C@H](C(C)C)C4CC4)nc(Cl)nc31)[C@H](O)[C@@H]2O    3.8
2. OC[C@@]12C[C@@H]1[C@@H](n1cnc3c(N[C@@H](C4CCC4)C4CC4)nc(Cl)nc31)[C@H](O)[C@@H]2O    1.6
3. OC[C@@]12C[C@@H]1[C@@H](n1cnc3c(N[C@H](C4CCC4)C4CC4)nc(Cl)nc31)[C@H](O)[C@@H]2O    1.5

Lab note: next compound to report on.
Consider the compound `O[C@@H]1[C@H](O)[C@@H]2C[C@@H]2[C@H]1n1ccc2c(NC(C3CC3)C3CC3)nc(I)nc21` . State its measured selectivity ratio.
1.4

* * *

# Tested on: Vero 76
# TEST_NAME: Cytotoxicity against monkey Vero 76 cells by neutral red uptake assay
# Format: cell-based
# PROTOCOL_CONDITIONS: chlorocebus sabaeus, vero 76
CC50 vs 30 µM: less than gives met; not less than gives not met.

1. NNc1nc(NC(C2CC2)C2CC2)c2ncn([C@H]3[C@H](O)[C@H](O)[C@@H]4C[C@@H]43)c2n1    not met
2. CC(C)[C@@H](Nc1nc(Cl)nc2c1ncn2[C@H]1[C@H](O)[C@H](O)[C@]2(CN)C[C@H]12)C1CC1    not met
3. OC[C@@]12C[C@@H]1[C@@H](n1cnc3c(NC(C4CC4)C4CC4)nc(Cl)nc31)[C@H](O)[C@@H]2O    not met
4. OC[C@H]1O[C@@H](n2cnc3c(NC(C4CCC4)C4CCC4)nc(Cl)nc32)[C@H](O)[C@@H]1O    met

# TODO verify CC50 < 30 µM strictly for this compound: `O[C@@H]1[C@H](O)[C@@H]2C[C@@H]2[C@H]1n1cnc2c(NC(C3CCC3)C3CCC3)nc(Cl)nc21`
met

Is the reported CC50 for `CC(C)[C@@H](Nc1nc(Cl)nc2c1ncn2[C@H]1[C@H](O)[C@H](O)[C@]2(CF)C[C@H]12)C1CC1` strictly below 30 µM?
not met
